STUDY TARGET: Cytochrome P450 2D6 (Homo sapiens)
EXPERIMENT SUMMARY: Cytochrome panel assay with activity outcomes
MEASUREMENT SETUP: recombinant CYP, pro-luciferin dealkylation, luminescence, p450-cyp2d6; series mostly up to 57.1 µM
Description: The P450 gene superfamily is involved in the metabolism and clearance of xenobiotics. This assay used various human CYP P450 isozymes to measure the dealkylation of various pro-luciferin substrates to luciferin. The luciferin is then measured by luminescence after the addition of a luciferase detection reagent. […] Inhibitors and some substrates limit the production of luciferin, and decrease measured luminescence. […] 8, Detection, 1 sec, ViewLux luminescent read […]
About 2,600 (16%) of roughly 16,000 compounds were called active. Inconclusive results (about 20%) are left out. Calls follow the shape of the dose curve; as a rule, active = well fitted curve in the direction sought with a large enough effect; inconclusive = small, poorly fitted or top-dose-only effect, or effect the other way; inactive = no such curve, though single readings can be large or run the other way. Only a sample is shown.
Pick one: Y for active, N for inactive

For orientation, consider the following solved cases.
| COMPOUND STRING | STUDY TARGET | LABEL |
| --- | --- | --- |
| Cc1nn(-c2ccc(F)cc2)c(C)c1NS(=O)(=O)c1ccc2ccccc2c1 | Cytochrome P450 2D6 (Homo sapiens) | Y |
| Cc1ccc(-n2c(=O)[nH]cc(C(=O)N3CCc4ccccc43)c2=O)cc1 | Cytochrome P450 2D6 (Homo sapiens) | N |

Query compound follows.
Exam item: Call for entry `CC(=O)Nc1c(C)nn(-c2ccc(C)c(C)c2)c1C` :
Marked response: N
